Molecular target: Methylated-DNA--protein-cysteine methyltransferase (Homo sapiens) (UniProt P16455)
Sequence (P16455 whole entry): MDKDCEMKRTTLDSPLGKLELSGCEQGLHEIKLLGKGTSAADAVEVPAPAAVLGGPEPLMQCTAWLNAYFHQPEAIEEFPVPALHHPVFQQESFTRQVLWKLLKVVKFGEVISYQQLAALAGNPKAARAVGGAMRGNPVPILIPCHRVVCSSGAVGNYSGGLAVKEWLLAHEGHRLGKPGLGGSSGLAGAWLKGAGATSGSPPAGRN
Assay Metric: ED50 (µM)

Consider the worked cases shown below.
[
  {
    "Smiles": "Cc1cccc(COc2nc(N)nc3nc[nH]c23)c1",
    "ED50 [µM]": 0.25
  },
  {
    "Smiles": "NCc1ccc(COc2nc(N)nc3nc[nH]c23)cc1",
    "ED50 [µM]": 0.23
  },
  {
    "Smiles": "Cc1ccccc1COc1nc(N)nc2nc[nH]c12",
    "ED50 [µM]": 185
  }
]

(A) NCc1ccccc1COc1nc(N)nc2nc[nH]c12
(B) Cc1ccc(COc2nc(N)nc3nc[nH]c23)cc1
Out of A and B , name the one with the higher ED50. Select an item and report its label.
A
